# measured_on: T1, CD25 (R&D systems cat. #223-2A/CF) (UniProt P01589 22-213, limits assumed)
# T1 construct: Bought soluble protein
# T1 sequence (looked up): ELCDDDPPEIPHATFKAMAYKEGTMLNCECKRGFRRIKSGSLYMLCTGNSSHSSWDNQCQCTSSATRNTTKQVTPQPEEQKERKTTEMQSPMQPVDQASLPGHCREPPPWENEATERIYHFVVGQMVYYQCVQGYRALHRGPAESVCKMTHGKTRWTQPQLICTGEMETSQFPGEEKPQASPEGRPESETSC
# method_description: Biacore (SPR); antibody captured on Protein A, CD25 injected
binders and their reported kon
# do not omit the unit; it follows the number

For orientation, consider the following solved cases.
anti-CD25 H0L0 (antibody, V domains shown, Chimeric form of the anti-TAC antibody, in IgG1 format; also called chimeric anti-CD25 H0L0; anti-TAC H0L0) VH: QVQLQQSGAELAKPGASVKMSCKASGYTFTSYRMHWVKQRPGQGLEWIGYINPSTGYTEYNQKFKDKATLTADKSSSTAYMQLSSLTFEDSAVYYCARGGGVFDYWGQGTTLTVSS VL: QIVLTQSPAIMSASPGEKVTITCSASSSISYMHWFQQKPGTSPKLWIYTTSNLASGVPARFSGSGSGTSYSLTISRMEAEDAATYYCHQRSTYPLTFGSGTKLELK ... 670000 M⁻¹ s⁻¹
anti-CD25 H1.22L1 (antibody, IgG1, V domains shown, IgG1 format) VH: QVQLVQSGAEVKKPGASVKVSCKASGYTFTSYRMHWVRQAPGQGLEWMGWINPNSGGTNYAQKFQGRVTITRDTSISTAYMELSRLRSDDTAVYYCARGGGVFDYWGQGTLVTVSS VL: QIVLTQSPATLSLSPGERATLSCRASSSISYMHWFQQKPGQSPQLLIYTTSNLASGVPARFSGSGSGTDYTLTISSLQPEDFAVYYCHQRSTYPLTFGSGTKLEIK ... 980000 M⁻¹ s⁻¹
anti-CD25 H1L1.56 (antibody, V domains shown, the fourth VL chain; also called VL combination variant L1.56 paired with H1) VH: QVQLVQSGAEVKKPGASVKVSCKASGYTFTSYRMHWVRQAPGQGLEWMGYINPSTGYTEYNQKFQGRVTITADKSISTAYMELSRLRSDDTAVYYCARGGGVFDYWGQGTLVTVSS VL: QIVLTQSPATLSLSPGERATLSCRASQSVSYLHWFQQKPGQSPQLLIYTTSNRATGIPARFSGSGSGTDFTLTISSLEPEDFAVYYCHQRSTYPLTFGSGTKLEIK ... 540000 M⁻¹ s⁻¹
anti-CD25 H1L1.20 (antibody, V domains shown, also called VL combination variant L1.20 paired with H1) VH: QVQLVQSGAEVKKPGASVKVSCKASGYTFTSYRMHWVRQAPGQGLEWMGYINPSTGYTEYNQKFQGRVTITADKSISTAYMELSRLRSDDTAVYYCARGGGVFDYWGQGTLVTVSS VL: EIVLTQSPATLSLSPGERATLSCRASQSVSYLHWYQQKPGQAPRLLIYTTSNRATGIPARFSGSGSGTDFTLTISSLEPEDFAVYYCHQRSTYPLTFGSGTKLEIK ... 430000 M⁻¹ s⁻¹
anti-CD25 H1L1.43 (antibody, V domains shown, also called VL combination variant L1.43 paired with H1) VH: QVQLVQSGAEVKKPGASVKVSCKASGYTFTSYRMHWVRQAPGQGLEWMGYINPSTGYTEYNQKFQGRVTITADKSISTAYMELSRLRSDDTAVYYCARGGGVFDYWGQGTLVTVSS VL: EIVLTQSPATLSLSPGERATLSCRASQSVSYLHWYQQKPGQAPRLLIYTTSNRATGIPARFSGSGSGTDYTLTISSLQPEDFAVYYCHQRSTYPLTFGSGTKLEIK ... 410000 M⁻¹ s⁻¹
anti-CD25 H1.22L1.20 (antibody, V domains shown) VH: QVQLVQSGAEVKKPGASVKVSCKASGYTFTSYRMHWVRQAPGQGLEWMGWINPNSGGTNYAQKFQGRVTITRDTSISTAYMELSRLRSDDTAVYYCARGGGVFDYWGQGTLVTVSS VL: EIVLTQSPATLSLSPGERATLSCRASQSVSYLHWYQQKPGQAPRLLIYTTSNRATGIPARFSGSGSGTDFTLTISSLEPEDFAVYYCHQRSTYPLTFGSGTKLEIK ... 720000 M⁻¹ s⁻¹

Now turn to the next binder.
Problem: Give a short answer stating reported kon for anti-CD25 H1.22L1.56 (antibody, V domains shown) VH: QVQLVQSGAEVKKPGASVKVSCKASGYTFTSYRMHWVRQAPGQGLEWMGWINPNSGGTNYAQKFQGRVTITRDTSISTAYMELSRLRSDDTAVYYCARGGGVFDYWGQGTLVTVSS VL: QIVLTQSPATLSLSPGERATLSCRASQSVSYLHWFQQKPGQSPQLLIYTTSNRATGIPARFSGSGSGTDFTLTISSLEPEDFAVYYCHQRSTYPLTFGSGTKLEIK .
Result: 970000 M⁻¹ s⁻¹
